Molecular target: Neuronal acetylcholine receptor; alpha4/beta2 (Homo sapiens, UniProt P17787+P43681)
Sequence (P17787 whole entry): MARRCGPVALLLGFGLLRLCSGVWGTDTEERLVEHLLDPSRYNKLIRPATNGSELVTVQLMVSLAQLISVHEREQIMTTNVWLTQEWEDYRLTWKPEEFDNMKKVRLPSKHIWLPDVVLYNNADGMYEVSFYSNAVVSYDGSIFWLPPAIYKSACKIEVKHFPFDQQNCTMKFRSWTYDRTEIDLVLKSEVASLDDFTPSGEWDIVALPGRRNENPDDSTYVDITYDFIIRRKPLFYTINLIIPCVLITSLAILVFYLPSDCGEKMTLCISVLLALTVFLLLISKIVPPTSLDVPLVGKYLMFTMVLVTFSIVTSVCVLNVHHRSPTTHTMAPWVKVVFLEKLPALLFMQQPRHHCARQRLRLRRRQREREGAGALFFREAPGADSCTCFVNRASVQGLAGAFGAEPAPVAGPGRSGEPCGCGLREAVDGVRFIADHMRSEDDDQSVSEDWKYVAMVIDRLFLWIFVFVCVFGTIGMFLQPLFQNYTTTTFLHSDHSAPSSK
Sequence (P43681 whole entry): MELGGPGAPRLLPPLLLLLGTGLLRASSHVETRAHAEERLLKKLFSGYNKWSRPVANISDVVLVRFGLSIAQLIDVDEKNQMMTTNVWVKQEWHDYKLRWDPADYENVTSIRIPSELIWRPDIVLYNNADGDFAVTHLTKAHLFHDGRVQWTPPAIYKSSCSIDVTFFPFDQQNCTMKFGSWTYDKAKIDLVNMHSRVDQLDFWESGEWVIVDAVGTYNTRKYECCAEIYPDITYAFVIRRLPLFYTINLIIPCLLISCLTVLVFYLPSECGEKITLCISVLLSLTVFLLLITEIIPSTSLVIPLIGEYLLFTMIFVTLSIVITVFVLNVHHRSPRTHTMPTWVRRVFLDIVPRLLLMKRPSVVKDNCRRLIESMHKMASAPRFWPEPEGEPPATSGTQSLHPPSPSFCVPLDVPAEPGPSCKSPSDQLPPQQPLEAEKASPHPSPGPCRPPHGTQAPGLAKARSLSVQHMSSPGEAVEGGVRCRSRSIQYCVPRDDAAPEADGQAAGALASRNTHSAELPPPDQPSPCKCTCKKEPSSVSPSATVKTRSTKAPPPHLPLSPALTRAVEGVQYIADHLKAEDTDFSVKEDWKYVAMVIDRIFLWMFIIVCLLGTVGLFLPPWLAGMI
Assay: Antagonist activity at human alpha4beta2 nAChR expressed in HEK293 cells assessed as (+/-)-epibatidine-induced Ca2+ influx
Parameter: IC50. Scope: all listed entries.
Give the value, in units of µM, as a plain number.

{"entry smiles": "COc1cc(Cn2cc(C[N+](C)(C)C)c3ccccc32)ccc1O", "tested system": "Neuronal acetylcholine receptor; alpha4/beta2 (Homo sapiens, UniProt P17787+P43681)", "outcome measure": "IC50", "units": "µM", "observed value": 9.1}
{"entry smiles": "C[N+](C)(C)Cc1cn(Cc2ccc(O)cc2)c2ccccc12", "tested system": "Neuronal acetylcholine receptor; alpha4/beta2 (Homo sapiens, UniProt P17787+P43681)", "outcome measure": "IC50", "units": "µM", "observed value": 24.9}
{"entry smiles": "C[N+](C)(C)Cc1cn(Cc2ccc3c(c2)OCO3)c2ccccc12", "tested system": "Neuronal acetylcholine receptor; alpha4/beta2 (Homo sapiens, UniProt P17787+P43681)", "outcome measure": "IC50", "units": "µM", "observed value": 3.9}
{"entry smiles": "C[N+](C)(C)Cc1cn(Cc2ccccc2)c2ccccc12", "tested system": "Neuronal acetylcholine receptor; alpha4/beta2 (Homo sapiens, UniProt P17787+P43681)", "outcome measure": "IC50", "units": "µM", "observed value": 4.2}

Incoming: Tell me the measured IC50 of COc1ccc(Cn2cc(C[N+](C)(C)C)c3ccccc32)cc1 , please.
Outgoing: 4.4

Incoming: For the molecule C[N+](C)(C)Cc1cn(Cc2ccc([N+](C)(C)C)cc2)c2ccccc12 , what IC50 is on record?
Outgoing: 20

Incoming: Could you share which IC50 value was measured for COc1ccc(Cn2cc(C[N+](C)(C)C)c3ccccc32)cc1OC ?
Outgoing: 14.8

Incoming: Fill in the blank: the reported IC50 of COc1ccc(Cn2cc(C[N+](C)(C)C)c3ccccc32)cc1O is ____.
Outgoing: 9.5

Incoming: Please give the measured IC50 for this molecule: C[N+](C)(C)Cc1cn(Cc2cccc(O)c2)c2ccccc12
Outgoing: 14.7
